Test system: Dinitrofluorobenzene-induced Auricle Edema Reaction in Mouse
Experiment: Suppressive action on dinitrofluorobenzene-induced auricle edema reaction in mouse
Format: in vivo
Settings: Mus musculus, topical; test compound concentration 1% (w/v) in acetone, applied to auricle 1 hr before and 3 hr after induction; BALB/c mice; measured 24 hr after induction; read-out: auricle edema suppression rate (%)
Everything with inhibition in vivo at 1 % lower than 40% is no; everything else, including exactly 40%, is yes.

Below are worked cases with known answers.
> print(dat)
                                   compound  discretelabel
1  NS(=O)(=O)c1ncc(C(=O)N2CCC(c3ccc(F)cc3)CC2)c(Nc2ccc(C(F)(F)F)cc2)c1Cl [Compound 291]             no
2  Cc1cc(F)ccc1Nc1c(C(=O)N2CCC(c3ccc(F)cc3)CC2)cnc(S(N)(=O)=O)c1Cl [Compound 25]            yes
3  CCNC(=O)NS(=O)(=O)c1cc(Nc2ccc(F)cc2C)c(C(=O)N2CCC(c3ccc(F)cc3)CC2)cn1 [Compound 22]            yes
4  Cc1c(S(=O)(=O)Nc2ccon2)ncc(C(=O)N2CCC(c3ccc(F)cc3)CC2)c1Nc1cccc(F)c1 [Compound 233]             no

IN: I'd appreciate it if you could say whether Cc1cc(NS(=O)(=O)c2ncc(C(=O)N3CCC(c4ccc(F)cc4)CC3)c(Nc3ccccc3C)c2C)sn1 [Compound 241] has inhibition in vivo at 1 % at least equal to 40%.
OUT: no

IN: Further, for Cc1cc(F)ccc1Nc1cc(S(=O)(=O)Nc2ccon2)ncc1C(=O)N1CCC(c2ccc(F)cc2)CC1 [Compound 11] ?
OUT: no

IN: What do you get for NS(=O)(=O)c1ncc(C(=O)N2CCC(c3ccc(F)cc3)CC2)c(Nc2cccc(Cl)c2)c1Cl [Compound 176] ?
OUT: yes

IN: Note, next up: Cc1c(S(=O)(=O)Nc2ccon2)ncc(C(=O)N2CCC(c3ccc(F)cc3)CC2)c1Nc1ccc(Cl)cc1 [Compound 259]
OUT: no
